In this section, each of the compounds is paired with its reported cytotoxicity at 10 µM.
Experiment: Toxicity liver stage against HepG2, at 10uM
Assay type: cell-based
Set-up: test concentration 10 uM, cell line HepG2-A16-CD81EGFP
Conditions: human, HepG2-A16-CD81EGFP cells; read-out: INHIBITION
Express your answer in %, writing the number without its unit.

Illustrative cases are given below, each with its answer.
{"COMPOUND": "CCOc1ccccc1OCCN(C)Cc1nccn1C", "MEASURE UNIT": "%", "cytotoxicity at 10 µM": -3.8}
{"COMPOUND": "CN(C)S(=O)(=O)NCC1(c2ccccc2Br)CC1", "MEASURE UNIT": "%", "cytotoxicity at 10 µM": 1.94}
{"COMPOUND": "Cc1ccc(CCCC(=O)N2CC(=O)Nc3cccnc32)s1", "MEASURE UNIT": "%", "cytotoxicity at 10 µM": -36.6}

What does the record list as cytotoxicity at 10 µM for O=C(Cc1ccccc1)NCCNC(=O)c1scnc1Cl ? -1.55

What does the record list as cytotoxicity at 10 µM for Clc1cc(CN2CCCC2Cn2cncn2)c2ncccc2c1 (configuration not stated) ? 1.28

What does the record list as cytotoxicity at 10 µM for O=C1N(Cc2ccncc2)CCC12CCCNC2 (configuration not stated) ? 4.26

What does the record list as cytotoxicity at 10 µM for Cc1ccccc1OCC(=O)N1CCCC(CNS(C)(=O)=O)C1 (configuration not stated) ? 2.07

What does the record list as cytotoxicity at 10 µM for CCOCC1CC2(CCN(C(=O)C3CCSCC3)CC2)CO1 (configuration not stated) ? 2.5

What does the record list as cytotoxicity at 10 µM for CC(C)c1n[nH]c(C2CN(C(=O)c3ccnc(C4CC4)n3)CCO2)n1 (configuration not stated) ? -12.6

What does the record list as cytotoxicity at 10 µM for CCN1CCN(C(=O)c2cnc3c(cnn3C3CCCC3)c2)CC1 ? -14.1

What does the record list as cytotoxicity at 10 µM for O=C(c1cccc2c1OCO2)N1CCCC1Cn1cccn1 (configuration not stated) ? 3.46

What does the record list as cytotoxicity at 10 µM for COC(=O)CNC(=O)C(C(C)C)n1cnc2cc(F)c(F)cc21 (configuration not stated) ? 2.76
